- Test system: HEK293
- Protocol Text: Cytotoxic Profiling of Annotated Libraries Using Quantitative High-Throughput Screening (AID 1296008); further: on the % scale 0 is the no-effect control and ±100 the full control effect; nearly all actives have a fitted effect of over 60% in size
- Experimental Setup: Five cell lines viability, CellTiter-Glo ATP luminescence, 48-72 h; active compounds read low
Inconclusive results are not listed.
Measured Property: max response (%)
Dear colleague, please return just the value in %, with no unit written.

Prompt: Fetch value of max response on HEK293 for `O=c1[nH]c(=O)n([C@H]2C[C@@H](O)[C@@H](CO)O2)cc1C=CBr` .
Response: -1.26

Prompt: Fetch value of max response on HEK293 for `O=C(O)C(=O)Nc1cccc(C2=NN=N[N]2)c1` .
Response: -1.4

Prompt: Fetch value of max response on HEK293 for `CC[C@H]1OC(=O)[C@H](C)[C@@H](O[C@H]2C[C@@](C)(OC)[C@@H](O)[C@H](C)O2)[C@H](C)[C@@H](O[C@@H]2O[C@@H](C)C[C@H](N(C)C)[C@@H]2O)[C@](C)(O)C[C@@H](C)C(=O)[C@H](C)[C@@H](O)[C@]1(C)O` .
Response: -7.85

Prompt: Fetch value of max response on HEK293 for `C[N+]1(C)[C@@H]2C[C@@H](OC(=O)C(O)(c3cccs3)c3cccs3)C[C@H]1[C@@H]1O[C@@H]12` .
Response: -10

Prompt: Fetch value of max response on HEK293 for `Cc1cc(-c2nnc3n2CCCCC3)c(C)n1-c1ccccc1` .
Response: -6.24

Prompt: Fetch value of max response on HEK293 for C[C@H](CCC(=O)O)[C@H]1CCC2C3C[C@H](O)[C@@H]4C[C@H](O)CC[C@]4(C)C3CC[C@@]21C (some centres not stated) .
Response: 4.87

Prompt: Fetch value of max response on HEK293 for `COc1ccc2cc([S+]([O-])Cc3ncc(C)c(OC)c3C)nc2c1` .
Response: 1.45

Prompt: Fetch value of max response on HEK293 for `NC(=O)c1cccc(-c2cccc(OC(=O)NC3CCCCC3)c2)c1` .
Response: -9.31

Prompt: Fetch value of max response on HEK293 for `CN[C@H](CC(C)C)C(=O)N[C@H]1C(=O)N[C@@H](CC(N)=O)C(=O)N[C@@H]2C(=O)N[C@H]3C(=O)N[C@H](C(=O)N[C@H](C(=O)O)c4cc(O)cc(O)c4-c4cc3ccc4O)[C@H](O)c3ccc(c(Cl)c3)Oc3cc2cc(c3O[C@@H]2O[C@H](CO)[C@@H](O)[C@H](O)[C@@H]2O[C@H]2C[C@](C)(N)[C@H](O)[C@H](C)O2)Oc2ccc(cc2Cl)[C@H]1O` .
Response: -10.3

Prompt: Fetch value of max response on HEK293 for `N#CC(=Cc1ccc(O)c(O)c1)C(=O)NCc1ccccc1` .
Response: -6.05

Prompt: Fetch value of max response on HEK293 for `CN[C@H]1[C@@H](O)[C@@H]2O[C@@H]3O[C@H](C)CC(=O)[C@]3(O)O[C@@H]2[C@@H](NC)[C@H]1O` .
Response: -3.13

Prompt: Fetch value of max response on HEK293 for `Cc1cc(C(=O)NOCCO)c(Nc2ccc(I)cc2F)n(C)c1=O` .
Response: -3.43

Prompt: Fetch value of max response on HEK293 for `COc1cc(C(C)C)c(Oc2cnc(NC(CO)CO)nc2N)cc1I` .
Response: -7.36

Prompt: Fetch value of max response on HEK293 for `CC(C)(O)CC[C@@H](O)[C@](C)(O)[C@H]1CC[C@@]2(O)C3=CC(=O)[C@@H]4C[C@@H](O)[C@@H](O)C[C@]4(C)[C@@H]3CC[C@]12C` .
Response: -3.79

Prompt: Fetch value of max response on HEK293 for `COC1=C(OC)C(=O)C(CC=C(C)CCC=C(C)CCC=C(C)CCC=C(C)CCC=C(C)CCC=C(C)CCC=C(C)CCC=C(C)CCC=C(C)CCC=C(C)C)=C(C)C1=O` .
Response: -5.18

Prompt: Fetch value of max response on HEK293 for `C=C1C[C@@]2(O)O[C@@]3(C[C@H]2C(C)C)[C@H](C)CC[C@H]13` .
Response: 0.867

Prompt: Fetch value of max response on HEK293 for `CC(C)(C)[C@H](NC(=O)c1ccc(N)c(Cl)c1)C(=O)N1CCC[C@@H]1C(=O)N[C@H](C#N)CC(=O)O` .
Response: -9.49

Prompt: Fetch value of max response on HEK293 for `NC[C@H]1O[C@H](O[C@H]2[C@@H](O)[C@@H](O[C@H]3O[C@H](CO)[C@@H](O)[C@H](N)[C@@H]3O)[C@H](N)C[C@@H]2N)[C@H](N)C[C@H]1O` .
Response: 0.89

Prompt: Fetch value of max response on HEK293 for `CC[C@H]1OC(=O)[C@H](C)[C@@H](O[C@H]2C[C@@](C)(OC)[C@@H](O)[C@H](C)O2)[C@H](C)[C@@H](O[C@@H]2O[C@H](C)C[C@H](N(C)C)[C@@H]2O)[C@](C)(OC)C[C@@H](C)C(=O)[C@H](C)[C@@H](O)[C@]1(C)O` .
Response: -15.9

Prompt: Fetch value of max response on HEK293 for `COc1cc(C[C@@H](CO)[C@H](CO)Cc2ccc(O)c(OC)c2)ccc1O` .
Response: -2.88

Prompt: Fetch value of max response on HEK293 for `C=CC1=C(C(=O)O)N2C(=O)[C@@H](NC(=O)C(=NO)c3csc(N)n3)[C@H]2SC1` .
Response: 0.682

Prompt: Fetch value of max response on HEK293 for CC(=O)O[C@@]12CO[C@H]1C[C@H](O)[C@@]1(C)C(=O)[C@H](O)C3=C(C)[C@@H](OC(=O)C(O)[C@@H](NC(=O)OC(C)(C)C)c4ccccc4)C[C@@](O)([C@@H](OC(=O)c4ccccc4)[C@@H]21)C3(C)C (some centres not stated) .
Response: -90.2
